- Assay info: Release of corticosteroid from drug-containing in-situ crosslinked sodium hyaluronate hydrogel into phosphate buffer solution
- Type: physicochemical
- Condition context: day 21; 0.2 mL gel in 10 mL phosphate buffer solution, 37° C., 100 rpm; UV absorption of supernatant
Reported endpoint: cumulative releasing percentage of the drug (%)
One number for each entry, in %.

Recorded cumulative releasing percentage of the drug, per entry:
[
  {
    "Compound": "C[C@]12C=CC(=O)C=C1CC[C@@H]1[C@@H]2C(=O)C[C@@]2(C)[C@H]1CC[C@]2(O)C(=O)CO [Prednisone]",
    "Result number": 100
  },
  {
    "Compound": "C[C@]12C=CC(=O)C=C1CC[C@@H]1[C@@H]2[C@@H](O)C[C@@]2(C)[C@H]1CC[C@]2(O)C(=O)CO [Prednisolone]",
    "Result number": 100
  }
]

Now for the compound whose cumulative releasing percentage of the drug we want.
Summary for this compound, C[C@H]1C[C@H]2[C@@H]3CCC4=CC(=O)C=C[C@]4(C)[C@@]3(Cl)[C@@H](O)C[C@]2(C)[C@@]1(O)C(=O)CO [Beclomethasone] : cumulative releasing percentage of the drug is 91

###

- Assay info: Release of corticosteroid from drug-containing in-situ crosslinked sodium hyaluronate hydrogel into phosphate buffer solution
- Format: physicochemical
- Condition context: day 7; 0.2 mL gel in 10 mL phosphate buffer solution, 37° C., 100 rpm; UV absorption of supernatant
Reported endpoint: cumulative releasing percentage of the drug (%)
Answers are plain numbers, in %.

[
  {
    "Compound": "C[C@]12C=CC(=O)C=C1CC[C@@H]1[C@@H]2C(=O)C[C@@]2(C)[C@H]1CC[C@]2(O)C(=O)CO [Prednisone]",
    "Result units": "%",
    "Result number": 82
  }
]

Can you give me cumulative releasing percentage of the drug for all of these, one by one?
1. C[C@H]1C[C@H]2[C@@H]3CCC4=CC(=O)C=C[C@]4(C)[C@@]3(Cl)[C@@H](O)C[C@]2(C)[C@@]1(O)C(=O)CO [Beclomethasone]
2. C[C@]12C=CC(=O)C=C1CC[C@@H]1[C@@H]2[C@@H](O)C[C@@]2(C)[C@H]1CC[C@]2(O)C(=O)CO [Prednisolone]

1. 61
2. 95

###

- Assay info: Release of corticosteroid from drug-containing in-situ crosslinked sodium hyaluronate hydrogel into phosphate buffer solution
- Format: physicochemical
- Condition context: day 14; 0.2 mL gel in 10 mL phosphate buffer solution, 37° C., 100 rpm; UV absorption of supernatant
Exercise: state measured cumulative releasing percentage of the drug for each of the compounds provided.
One number for each entry, in %.

Recorded cumulative releasing percentage of the drug, per entry:
[
  {
    "Smiles code": "C[C@H]1C[C@H]2[C@@H]3CCC4=CC(=O)C=C[C@]4(C)[C@@]3(Cl)[C@@H](O)C[C@]2(C)[C@@]1(O)C(=O)CO",
    "Result units": "%",
    "Result number": 82
  },
  {
    "Smiles code": "C[C@]12C=CC(=O)C=C1CC[C@@H]1[C@@H]2C(=O)C[C@@]2(C)[C@H]1CC[C@]2(O)C(=O)CO",
    "Result units": "%",
    "Result number": 95
  }
]

Now for the compound whose cumulative releasing percentage of the drug we want.
Summary for this compound, "C[C@]12C=CC(=O)C=C1CC[C@@H]1[C@@H]2[C@@H](O)C[C@@]2(C)[C@H]1CC[C@]2(O)C(=O)CO" : cumulative releasing percentage of the drug is 100
